# Method Description: Solubility in test media, saturated solutions, HPLC
# Type: physicochemical
# Condition: 50 mM ammonium formate, aqueous buffer, thermodynamic from solid; ca. 20° C.; ammonium formate 50 mM, pH 7.9; read-out: Solubility in ammonium formate (50 mM, pH 7.9)
Structures can show the parent of a compound that is named as a salt.
Parameter: solubility at 20 min (µg/mL)
Answers are plain numbers, in µg/mL.

Sure, the documented solubility at 20 min for O=C1CN2Cc3c(ccc(Cl)c3Cl)N=C2N1 [Anagrelide hydrochloride, hydrochloride monohydrate, reference compound] is 10

---

# Method Description: Pharmacokinetics in the conscious dog model
# Format: in vivo
# Condition: in vivo, after 1 mg/kg iv, geometric mean ± % CV, read-out: Vss
Counter-ions that a name gives are not always drawn.
Parameter: Vd (L/kg)
One number for each entry, in L/kg.

Sure, the documented Vd for O=C1CN2Cc3c(ccc(Cl)c3Cl)N=C2N1 [Anagrelide, hydrochloride monohydrate] is 1.01

---

# Method Description: Solubility in test media, saturated solutions, HPLC
# Format: physicochemical
# Condition: ca. 20° C.; 0.1M HCl, pH 0.6
Record form. Attribute: Solubility in hydrochloric acid (0.1M, pH 0.6). Fill in for each entry.
Give bare numbers, in μg mL^−1.

These recorded examples may help you get a feel for the data.
Molecule: O=C1[N-]C2=Nc3ccc(Cl)c(Cl)c3CN2C12CC2.[Na+]
Endpoint Value: 28
//
Molecule: C=c1c(=O)[nH]c2n1Cc1c(ccc(Cl)c1Cl)N=2 [3-Methyleneanagrelide, 3-methyleneanagrelide]
Endpoint Value: 43
//
Molecule: C=c1c(=O)[n-]c2n1Cc1c(ccc(Cl)c1Cl)N=2.[Na+] [3-Methyleneanagrelide Na salt]
Endpoint Value: 189
//
Molecule: Br.CC1(C)C(=O)NC2=Nc3ccc(Cl)c(Cl)c3CN21 [3,3-Dimethylanagrelide hydrobromide]
Endpoint Value: 215
//
Molecule: Br.O=C1NC2=Nc3ccc(Cl)c(Cl)c3CN2C12CC2
Endpoint Value: 35

Here is the next item to consider.
Sure, the documented Solubility in hydrochloric acid (0.1M, pH 0.6) for CC1(C)C(=O)[N-]C2=Nc3ccc(Cl)c(Cl)c3CN21.[Na+] [3,3-Dimethylanagrelide sodium salt] is 212

---

Record form. Attribute: pIC50. Fill in for each entry.
# Experimental Target: human phosphodiesterase III (PDE III)
# Method Description: In vitro PDE III inhibition (human enzyme)
# Type: biochemical
# Condition: read-out: In vitro IC50 for PDE III inhibition (human enzyme)
Counter-ions that a name gives are not always drawn.
Numbers only, as −log10 of the molar value.

Compound: CC1(C)C(=O)NC2=Nc3ccc(Cl)c(Cl)c3CN21 [3,3 dimethyl anagrelide, 3,3-dimethylanagrelide]
Parameter: pIC50
Endpoint Value: 6.79

I have 2 compounds here; please give me pIC50 for each one.
1. O=C1CN2Cc3c(ccc(Cl)c3Cl)N=C2N1 [Anagrelide, hydrochloride monohydrate]
2. O=C1NC2=Nc3ccc(Cl)c(Cl)c3CN2C1O (stereo not drawn) [3-hydroxy anagrelide, 3-hydroxyanagrelide]

[7.54, 9.15]

---

# Method Description: Pharmacokinetics in the conscious dog model
# Assay type: in vivo
# Condition: in vivo, intravenous, 1 mg/kg, geometric mean ± % CV, read-out: AUC(0-t)
Where a name gives a salt, the structure may show the parent alone.
Parameter: AUC(0-t)
Write the quantity with the unit trailing the number.

Sure, the documented AUC(0-t) for O=C1CN2Cc3c(ccc(Cl)c3Cl)N=C2N1 [Anagrelide, hydrochloride monohydrate] is 0.101 µg·h/mL

---

# Method Description: Pharmacokinetics in the conscious dog model
# Format: in vivo
# Condition: in vivo, intravenous, 1 mg/kg, geometric mean ± % CV, read-out: Cmax
Structures can show the parent of a compound that is named as a salt.
Parameter: Cmax
Write the quantity with the unit trailing the number.

Sure, the documented Cmax for O=C1CN2Cc3c(ccc(Cl)c3Cl)N=C2N1 [Anagrelide, hydrochloride monohydrate] is 48.1 ng/mL

---

# System: heart rate
# Method Description: In vivo cardiovascular effects on dog heart rate
# Condition: in vivo
Where a name gives a salt, the structure may show the parent alone.
Parameter: ED50 (mg/kg)
Give bare numbers, in mg/kg.

Sure, the documented ED50 for O=C1CN2Cc3c(ccc(Cl)c3Cl)N=C2N1 [Anagrelide, hydrochloride monohydrate] is 0.986

---

# Method Description: Solubility in test media, saturated solutions, HPLC
# Format: physicochemical
# Condition: ca. 20° C.; singly distilled water, pH 5.0
Values of Solubility in water (pH 5.0) greater than or equal to 20 μg mL^−1 map to Fulfilled; values below map to Not fulfilled.

Solved cases (4 shown):
Compound: O=C1[N-]C2=Nc3ccc(Cl)c(Cl)c3CN2C12CC2.[Na+]
Label Value: Fulfilled

Compound: C=c1c(=O)[nH]c2n1Cc1c(ccc(Cl)c1Cl)N=2 [3-Methyleneanagrelide, 3-methyleneanagrelide]
Label Value: Not fulfilled

Compound: Br.O=C1NC2=Nc3ccc(Cl)c(Cl)c3CN2C12CC2
Label Value: Not fulfilled

Compound: CC1(C)C(=O)[N-]C2=Nc3ccc(Cl)c(Cl)c3CN21.[Na+] [3,3-Dimethylanagrelide sodium salt]
Label Value: Fulfilled

// switching to the query compound
Is Solubility in water (pH 5.0) for C=c1c(=O)[n-]c2n1Cc1c(ccc(Cl)c1Cl)N=2.[Na+] [3-Methyleneanagrelide Na salt] at or above 20 μg mL^−1?
Fulfilled

---

# Method Description: Pharmacokinetics in the conscious dog model
# Format: in vivo
# Condition: in vivo, after 1 mg/kg iv, geometric mean ± % CV
Counter-ions that a name gives are not always drawn.
Parameter: clearance (mL/min/kg)
Answers are plain numbers, in mL/min/kg.

Sure, the documented clearance for O=C1CN2Cc3c(ccc(Cl)c3Cl)N=C2N1 [Anagrelide, hydrochloride monohydrate] is 19.3

---

# Method Description: Pharmacokinetics in the conscious dog model
# Type: in vivo
# Condition: in vivo, intravenous, 1 mg/kg, geometric mean ± % CV
Where a name gives a salt, the structure may show the parent alone.
Parameter: half-life

Sure, the documented half-life for O=C1CN2Cc3c(ccc(Cl)c3Cl)N=C2N1 [Anagrelide, hydrochloride monohydrate] is 1.37 h

---

# Experimental Target: human phosphodiesterase III (PDE III)
# Method Description: In vitro PDE III inhibition (human enzyme)
# Type: biochemical
# Condition: Example 1 table; read-out: IC50 for PDE III inhibition (cardiovascular effects)
Counter-ions that a name gives are not always drawn.
Parameter: IC50
Write the quantity with the unit trailing the number.

Compound: O=C1NC2=Nc3ccc(Cl)c(Cl)c3CN2C12CC2 [3-spirocyclo propyl anagrelide, 3,3,spiro-cyclopropyl-anagrelide]
IC50: 797 nM
//
Compound: O=C1NC2=Nc3ccc(Cl)c(Cl)c3CN2C1O (stereo not shown) [3-hydroxy anagrelide, 3-hydroxyanagrelide]
IC50: 0.7 nM
//
Compound: CC1(C)C(=O)NC2=Nc3ccc(Cl)c(Cl)c3CN21 [3,3 dimethyl anagrelide, 3,3-dimethylanagrelide]
IC50: 166 nM

Sure, the documented IC50 for O=C1CN2Cc3c(ccc(Cl)c3Cl)N=C2N1 [Anagrelide, hydrochloride monohydrate] is 32 nM

---

# Method Description: Solubility in test media, saturated solutions, HPLC
# Type: physicochemical
# Condition: 0.1 M hydrochloric acid, simulated gastric fluid, thermodynamic from solid; ca. 20° C.; 0.1M HCl, pH 0.6; read-out: Solubility in hydrochloric acid (0.1M, pH 0.6)
# Protocol: Solubility studies were carried out on a number of anagrelide derivatives according to the present invention in various test media. […] Calibration plots of HPLC peak area vs. concentration were obtained in MeOH or MeOH/DMSO over the range 1000-1 μg/ml for each substance at a temperature 20-22° C. […] The concentration of the substance in the supernatant liquid was determined from the measured peak area.
Counter-ions that a name gives are not always drawn.
Parameter: solubility at 20 min
Write the quantity with the unit trailing the number.

Sure, the documented solubility at 20 min for O=C1CN2Cc3c(ccc(Cl)c3Cl)N=C2N1 [Anagrelide hydrochloride, hydrochloride monohydrate, reference compound] is 169 µg/mL

---

Record form. Attribute: Solubility in ammonium formate (50 mM, pH 7.9). Fill in for each entry.
# Method Description: Solubility in test media, saturated solutions, HPLC
# Assay type: physicochemical
# Condition: ca. 20° C.; ammonium formate 50 mM, pH 7.9
One number for each entry, in μg mL^−1.

These recorded examples may help you get a feel for the data.
Compound: Br.CC1(C)C(=O)NC2=Nc3ccc(Cl)c(Cl)c3CN21 [3,3-Dimethylanagrelide hydrobromide]
Quantity Unit: μg mL^−1
Endpoint Value: 4

Compound: Br.O=C1NC2=Nc3ccc(Cl)c(Cl)c3CN2C12CC2
Quantity Unit: μg mL^−1
Endpoint Value: 1

Compound: CC1(C)C(=O)[N-]C2=Nc3ccc(Cl)c(Cl)c3CN21.[Na+] [3,3-Dimethylanagrelide sodium salt]
Quantity Unit: μg mL^−1
Endpoint Value: 6

Compound: C=c1c(=O)[nH]c2n1Cc1c(ccc(Cl)c1Cl)N=2 [3-Methyleneanagrelide, 3-methyleneanagrelide]
Quantity Unit: μg mL^−1
Endpoint Value: 5

Compound: C=c1c(=O)[n-]c2n1Cc1c(ccc(Cl)c1Cl)N=2.[Na+] [3-Methyleneanagrelide Na salt]
Quantity Unit: μg mL^−1
Endpoint Value: 39

Sure, the documented Solubility in ammonium formate (50 mM, pH 7.9) for O=C1[N-]C2=Nc3ccc(Cl)c(Cl)c3CN2C12CC2.[Na+] is 1
